Target: Human CXCR4 transfected HEK293 cells (Homo sapiens, UniProt P61073)
Sequence (P61073 whole entry): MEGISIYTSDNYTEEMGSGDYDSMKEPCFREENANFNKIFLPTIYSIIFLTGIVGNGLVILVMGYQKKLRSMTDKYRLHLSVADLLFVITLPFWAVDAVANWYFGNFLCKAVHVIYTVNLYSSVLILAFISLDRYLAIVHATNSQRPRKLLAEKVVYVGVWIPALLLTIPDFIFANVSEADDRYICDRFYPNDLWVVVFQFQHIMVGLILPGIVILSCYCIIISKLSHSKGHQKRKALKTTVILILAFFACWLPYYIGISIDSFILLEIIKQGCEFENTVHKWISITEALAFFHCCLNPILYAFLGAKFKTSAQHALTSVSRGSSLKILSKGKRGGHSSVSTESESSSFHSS
Experiment: CXCR4 functional calcium assay (calcium flux FLIPR, antagonism of SDF1 response)
Settings: CXCR4 functional activity, antagonism of SDF1 (EC50 concentration), read-out: CXCR4 fKi
pKi: −log10 of the molar value.
Consider the following compounds and their measured pKi readings.
property name: pKi

1. C[C@H](N1CCC(N2CCCN(c3cccc(C(=O)NCC4CC4)n3)CC2)CC1)C(F)(F)F ... 6.30 to 7.00
2. CC(C)N1CCC(N2CCCN(c3cccc(-c4noc(C5CC5)n4)n3)CC2)CC1 ... 6.30 to 7.00
3. CC(C)N1CCC(N2CCCN(c3cccc(-c4nc5ccc(C#N)cc5[nH]4)n3)CC2)CC1 ... > 7.70
4. Cc1cc(C(=O)NCC2CC2)nc(N2CCCN(C3CCN(Cc4ccccc4Cl)CC3)CC2)c1 ... 6.30 to 7.00
5. C[C@H](N1CCC(N2CCCN(c3cccc(C(=O)Nc4ccncc4)n3)CC2)CC1)C(F)(F)F ... > 7.70
6. CC(C)(C)C1CCC(N2CCCN(c3cccc(C(=O)NCc4cccnc4)n3)CC2)CC1 (stereo not shown) ... 7.00 to 7.70
7. [2H]C1([2H])CCN(c2cccc(C(=O)Nc3ccncc3)n2)CCN1C1CCN(C(C)C)CC1F (stereo not shown) ... 7.00 to 7.70
8. CC(C)N1CCC(N2CCCN(c3cccc(C(=O)NCC4CC4)n3)CC2C)CC1 (stereo not shown) ... 7.00 to 7.70
9. [2H]C1([2H])CCN(c2cccc(C(=O)Nc3ccncc3)n2)CCN1C1CCN(Cc2ccccc2Cl)CC1 ... > 7.70
10. CC(C)N1CCC(N2CCCN(c3cccc(C(=O)NCc4nccs4)n3)CC2)CC1 ... 7.00 to 7.70
